The following compounds are shown together with reported IC50 values.
Biological target: ClpP1P2 complex in Mtb (Mycobacterium tuberculosis, UniProt P9WPC5)
Sequence (P9WPC5 whole entry, looked up, one chain of several): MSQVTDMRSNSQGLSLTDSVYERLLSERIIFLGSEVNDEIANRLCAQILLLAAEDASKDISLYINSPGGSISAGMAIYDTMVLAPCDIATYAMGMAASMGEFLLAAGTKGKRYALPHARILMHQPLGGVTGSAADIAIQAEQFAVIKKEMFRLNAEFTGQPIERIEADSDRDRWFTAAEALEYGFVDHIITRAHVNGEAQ
Assay: ClpP1P2 peptidase activity assay, dose-response and IC50 determination
Type: biochemical
Settings: source data Figure4b, synthesized compounds
Measure: IC50 (µM)

                                   compound  result_unit  value
0  CN(C)S(=O)(=O)c1ccc(C(=O)N2C(=O)c3ccccc3C2=O)cc1 [Syn-A005-02]           µM    3.4
1  NS(=O)(=O)c1ccc(NC(=O)Nc2ccc(Cl)c(C(F)(F)F)c2)cc1 [Syn-A003-01]           µM   20.3
2  Cc1ccc(C(=O)N2C(=O)c3ccccc3C2=O)cc1 [Syn-A005-01]           µM   5.34

----------
Biological target: ClpP1P2 complex in Mtb (Mycobacterium tuberculosis, UniProt P9WPC5)
Test: ClpP1P2 peptidase activity assay, dose-response and IC50 determination
Assay type: biochemical
Details: source data Figure4b, screening hits
The following compounds are shown together with reported IC50 values.
Measure: IC50 (µM)

>>> df
                                   compound  value
0   Oc1c(Cc2ccccc2)ccc2ccccc12 [Analog-004]   19.6
1  CN(C)S(=O)(=O)c1ccc(C(=O)N2C(=O)c3cccc(N)c3C2=O)cc1 [Analog-005]   1.88
2  NS(=O)(=O)c1ccc(NC(=O)Nc2cc(Cl)cc(Cl)c2)cc1 [Analog-003]   10.1
3  O=C(Nc1ccccc1F)Nc1ccccc1NC(=O)c1ccccc1Cl [Analog-002]   19.9
4  O=C(Nc1ccc(F)cc1)Nc1ccc(Br)c(C(F)(F)F)c1 [Analog-001]   17.2

Where these numbers come from: paper PMC11522292
